// reported melting point per item

Consider the following illustrative entries.
| compound | experimental_value |
| --- | --- |
| COc1ccc(C(=O)c2c(N)sc(C)c2C)cc1OC | 172 to 173 °C |
| COc1nc(C)nc(NC(=O)NS(=O)(=O)c2ccccc2OC(F)F)n1 | 140 to 141 °C |
| N#CC1=C(c2ccco2)Nc2n[nH]cc2C1c1cccc2nonc12 (stereo unspecified) | 237 °C |
| O=C(NCCO)NC1CCCc2ccccc21 (stereo unspecified) | 146 to 149 °C |

*Q* Fill blank: measured melting point of the compound CN(O)C(=O)NCCCCCCCOCc1ccccc1 is ____.
*A* 69 to 70.5 °C

*Q* Fill blank: measured melting point of the compound NC1=CC=C(c2ccccc2)CC1(Cl)C(O)(C1CC1)C1CC1 (stereo unspecified) is ____.
*A* 90 to 92 °C

*Q* Fill blank: measured melting point of the compound O=C(O)CCCOc1ccc(C2C3CC4CC(C3)CC2C4)cc1 (stereo unspecified) is ____.
*A* 163 to 165 °C

*Q* Fill blank: measured melting point of the compound COC(=O)Cc1c(F)cc(O)cc1F is ____.
*A* 75.5 to 77.5 °C

*Q* Fill blank: measured melting point of the compound N=c1sc2ccccc2n1C(C=O)c1ccc(Cl)cc1 (stereo unspecified) is ____.
*A* 114 °C

*Q* Fill blank: measured melting point of the compound Cc1cc(C)nc(NCCN(C(C)C)C(C)C)n1 is ____.
*A* 79.5 to 82 °C

*Q* Fill blank: measured melting point of the compound COc1ccc(NS(=O)(=O)c2ccccc2Br)cc1N(C)C1CCN(C)CC1 is ____.
*A* 119 to 121 °C
